Data origin: paper PMC13541613

biological target: ZNF721 DBD2 (Homo sapiens, UniProt Q8TF20-2 395-923); experiment: HT-SELEX; 20 mM HEPES pH 7, 140 mM KCl, 5 mM NaCl, 1 mM K2HPO4, 2 mM MgSO4, 100 uM EGTA, ZnSO4, 0.1% Tween20; room temperature, 1 h; high values mean tight binding; conditions: protein: ivt; tags: eGFP (N-terminal); dsDNA, one strand shown
Sequence (Q8TF20 383-911): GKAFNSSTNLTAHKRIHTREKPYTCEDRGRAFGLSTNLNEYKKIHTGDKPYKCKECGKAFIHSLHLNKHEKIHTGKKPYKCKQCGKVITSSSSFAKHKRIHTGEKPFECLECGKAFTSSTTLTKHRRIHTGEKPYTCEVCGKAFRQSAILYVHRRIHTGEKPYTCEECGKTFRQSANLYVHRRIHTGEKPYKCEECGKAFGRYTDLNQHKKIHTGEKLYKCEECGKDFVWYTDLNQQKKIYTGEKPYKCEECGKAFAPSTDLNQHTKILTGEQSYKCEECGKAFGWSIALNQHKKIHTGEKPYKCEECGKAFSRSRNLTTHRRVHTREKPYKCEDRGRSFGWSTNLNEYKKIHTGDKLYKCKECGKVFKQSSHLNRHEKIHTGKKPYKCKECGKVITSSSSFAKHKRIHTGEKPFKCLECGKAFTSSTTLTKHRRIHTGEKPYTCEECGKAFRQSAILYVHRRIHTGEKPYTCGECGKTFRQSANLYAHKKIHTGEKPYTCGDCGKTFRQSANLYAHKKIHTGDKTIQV
Measured property: binding signal (relative 10-mer count)
Just the number please, in relative 10-mer count, no unit attached.

// known answers, use as guide
* CACACCCACC | 0.00695
* AAAAAAGCGC | 0.015
* CGCCCCCTCC | 0.00407

Here is the next item to consider.
Reported binding signal for CCCCCGCCGC was 0.00168
